Target: MdWRKY9 (Malus domestica (apple)?, UniProt D9ZJG3 1-520)
Sequence (D9ZJG3 entry or part of it): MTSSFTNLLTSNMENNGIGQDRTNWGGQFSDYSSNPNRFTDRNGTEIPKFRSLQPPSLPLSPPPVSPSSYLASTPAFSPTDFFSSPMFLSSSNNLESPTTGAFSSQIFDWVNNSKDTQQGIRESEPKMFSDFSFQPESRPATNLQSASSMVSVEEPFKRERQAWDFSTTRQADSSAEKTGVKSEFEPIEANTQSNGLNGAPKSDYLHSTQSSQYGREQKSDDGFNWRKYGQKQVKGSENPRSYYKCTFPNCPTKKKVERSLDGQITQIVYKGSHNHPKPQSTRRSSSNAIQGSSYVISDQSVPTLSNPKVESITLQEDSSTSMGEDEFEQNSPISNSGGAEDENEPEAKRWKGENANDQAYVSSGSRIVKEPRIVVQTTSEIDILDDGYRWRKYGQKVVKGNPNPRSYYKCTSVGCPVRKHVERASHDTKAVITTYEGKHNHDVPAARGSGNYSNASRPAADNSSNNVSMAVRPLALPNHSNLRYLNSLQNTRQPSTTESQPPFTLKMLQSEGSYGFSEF
Assay: EMSA; EMSA buffer, salt, pH and temperature not given (refers to earlier method, ref. 35); GST added to equalize protein in JAZ assays
Details: protein: recombinant; tags: His (pET32a(+)); label: 3' biotin; blunt
REPORTED METRIC: binding result

| BINDER | binding result |
| --- | --- |
| MdSOS2 W3 mutant probe (dsDNA) DNA 1: TATGAAAACTGGAACTTGGGTTTCCTGAATTTACTTCTAATTTCAT DNA 2: ATGAAATTAGAAGTAAATTCAGGAAACCCAAGTTCCAGTTTTCATA | no binding |
| MdSOS3 W-box probe 1 (W4, -127) (dsDNA) DNA 1: TAGTGAAGCACATCCGCTCTAGTCAAAGCAGCTACGCTCACGCGTG DNA 2: CACGCGTGAGCGTAGCTGCTTTGACTAGAGCGGATGTGCTTCACTA | no binding |
| MdSOS2 W2 mutant probe (dsDNA) DNA 1: TCACAGCCACGTGAATTGAATTTCCCAATTTTCCAATTCTGTTTAT DNA 2: ATAAACAGAATTGGAAAATTGGGAAATTCAATTCACGTGGCTGTGA | no binding |
| MdSOS2 W-box W2 (-149), probe 1 (dsDNA) DNA 1: TCACAGCCACGTGAATTGAATTGACCAATTTTCCAATTCTGTTTAT DNA 2: ATAAACAGAATTGGAAAATTGGTCAATTCAATTCACGTGGCTGTGA | binds |
| MdNHX1 W-box W1 (-1255) (dsDNA) DNA 1: ATCATATTTTTACACTAAAAAGTCAATCTTGGTACTATTTATCTTA DNA 2: TAAGATAAATAGTACCAAGATTGACTTTTTAGTGTAAAAATATGAT | binds |
| MdSOS2 W-box W3 (-303), probe 2 (dsDNA) DNA 1: TATGAAAACTGGAACTTGGGTTGACTGAATTTACTTCTAATTTCAT DNA 2: ATGAAATTAGAAGTAAATTCAGTCAACCCAAGTTCCAGTTTTCATA | binds |

Let us move to another entry and its binding result.
Query block: Request the reported binding result associated with MdNHX1 W1 mutant probe (dsDNA) DNA 1: ATCATATTTTTACACTAAAAAGGAAATCTTGGTACTATTTATCTTA DNA 2: TAAGATAAATAGTACCAAGATTTCCTTTTTAGTGTAAAAATATGAT
Result block: no binding

Where do the numbers come from? From paper PMC12038257.
